Ref: the Immune Epitope Database (IEDB)

# assayedTarget: HLA-A*03:01
# measurementDescription: IEDB peptide-MHC binding, purified MHC/competitive/radioactivity; filed as Kd, often an IC50 or EC50 that approximates it; bounds were set here for any values at or beyond the usual limits of such assays
# recordedConditions: source organism: Dengue virus 2 Jamaica/1409/1983
endpoint: pKd
In plain terms, pKd is the concentration in mol/L turned into minus its base-10 logarithm.

input: Given the sequence RQMEGEGIFK , what is its reported pKd?
output: 7.67

* * *

# assayedTarget: HLA-B*07:02
# measurementDescription: IEDB peptide-MHC binding, purified MHC/direct/fluorescence; filed as Kd, often an IC50 or EC50 that approximates it; bounds were set here for any values at or beyond the usual limits of such assays
# recordedConditions: source organism: Brucella abortus
endpoint: pKd
Lab note: report pKd as minus log10 of the concentration in molar units, number only.

input: I would be grateful if you could share the reported pKd for LPAIIRPSF .
output: 6.99

* * *

# assayedTarget: HLA-B*51:01
# measurementDescription: IEDB peptide-MHC binding, purified MHC/competitive/radioactivity; filed as Kd, often an IC50 or EC50 that approximates it; bounds were set here for any values at or beyond the usual limits of such assays
# recordedConditions: source organism: Vaccinia virus WR
The reader will find reported Kd values listed item by item below.

Take a look at these entries with their results.
[
  {
    "sequenceData": "FPQHVITKDV",
    "assayedTarget": "HLA-B*51:01",
    "Kd": "0.0662 µM"
  },
  {
    "sequenceData": "EPLSPDTCL",
    "assayedTarget": "HLA-B*51:01",
    "Kd": "0.211 µM"
  },
  {
    "sequenceData": "HPDFCKNRRY",
    "assayedTarget": "HLA-B*51:01",
    "Kd": "≥ 69.6 µM"
  },
  {
    "sequenceData": "LPLTSLVITY",
    "assayedTarget": "HLA-B*51:01",
    "Kd": "16.5 µM"
  },
  {
    "sequenceData": "NPIINTHSF",
    "assayedTarget": "HLA-B*51:01",
    "Kd": "≥ 27.1 µM"
  }
]

input: Param item = TPIFSDLLKY ; retrieve measured Kd.
output: ≥ 44.8 µM

input: Same thing, different sequence: SPLTLLIKTL
output: ≥ 57.3 µM

input: Next entry: NPSILPSLI
output: 0.304 µM

* * *

# assayedTarget: HLA-B*53:01
# measurementDescription: IEDB peptide-MHC binding, purified MHC/competitive/radioactivity; filed as Kd, often an IC50 or EC50 that approximates it; bounds were set here for any values at or beyond the usual limits of such assays
# recordedConditions: source organism: SARS coronavirus Tor2
In this section we review reported Kd values for a set of sequences.
The answer is to be given in µM; state only the numeric part.

[
  {
    "sequenceData": "WPWYVWLGFI",
    "assayedTarget": "HLA-B*53:01",
    "endpoint": "Kd",
    "readoutUnits": "µM",
    "measuredNumber": 4.57
  }
]

input: Find the recorded Kd belonging to RPDTRYVLM and report it.
output: 4.85

input: // next record LPPKSSIDAF
output: 11.1

input: # iterate: GPLVRKIFV
output: 11.9
